Molecular target: GnRH receptor (Homo sapiens)
Construct: expressed in transfected cells
Sequence (P30968 1-328): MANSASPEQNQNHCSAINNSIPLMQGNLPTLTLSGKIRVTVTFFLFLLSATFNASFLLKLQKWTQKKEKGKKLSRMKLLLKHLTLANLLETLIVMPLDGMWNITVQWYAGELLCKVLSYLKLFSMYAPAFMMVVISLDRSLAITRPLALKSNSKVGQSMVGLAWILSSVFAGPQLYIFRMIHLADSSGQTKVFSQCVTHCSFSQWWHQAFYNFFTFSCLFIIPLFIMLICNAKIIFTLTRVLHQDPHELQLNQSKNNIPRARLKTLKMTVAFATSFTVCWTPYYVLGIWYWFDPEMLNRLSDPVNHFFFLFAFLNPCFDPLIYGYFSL
Experiment: GnRH receptor membrane binding assay
Conditions: GnRH receptor membrane binding assay, [125I]-labeled GnRH peptide; read-out: Ki
Assignment: determine reported Ki for the given compounds.

Input: Lab note: need Ki for COc1ccc(-c2c(C)n(Cc3c(F)cccc3F)c(=O)n(C[C@H](N)c3ccccc3)c2=O)cn1 [8-58] on GnRH receptor (Homo sapiens), anyone have it?
Output: < 0.1 µM

Input: Next record, please: Cc1c(-c2ccc(Oc3ccccc3)cc2)c(=O)n(CCN2CCCC(C(N)=O)C2)c(=O)n1Cc1c(F)cccc1F (stereo not drawn) [9-37]
Output: < 0.1 µM

Input: Next record, please: COc1cccc(-c2c(C)n(Cc3c(F)cccc3F)c(=O)n(CC(C)NCc3cccs3)c2=O)c1F (stereo not drawn) [9-621]
Output: < 0.1 µM

Input: Next record, please: Cc1c(-c2ccc3c(c2)OCO3)c(=O)n(CCN(C)CCc2ccccn2)c(=O)n1Cc1c(F)cccc1F [3-1]
Output: < 0.1 µM

Input: Next record, please: COc1cccc(-c2c(C)n(Cc3c(F)cccc3F)c(=O)n([C@H](C)CNCc3c(F)cccc3Cl)c2=O)c1 [9-514]
Output: < 0.1 µM

Input: Next record, please: COc1cccc(-c2c(C)n(Cc3c(F)cccc3F)c(=O)n(CCN3CCC(NC(=O)OC(C)(C)C)C3)c2=O)c1 (stereo not drawn) [7-4]
Output: < 0.1 µM

Input: Next record, please: CCN[C@H](Cn1c(=O)c(-c2cccc(OC)c2F)c(C)n(Cc2c(F)cccc2F)c1=O)C(C)C [9-714]
Output: < 0.1 µM

Input: Next record, please: COc1cccc(-c2c(C)n(Cc3c(F)cccc3F)c(=O)n(C[C@H](C)NCc3cccn3C)c2=O)c1F [9-664]
Output: < 0.1 µM

Input: Next record, please: COc1cccc(-c2c(C)n(Cc3c(F)cccc3F)c(=O)n(CC(C)NCc3cc(C)c(C)o3)c2=O)c1F (stereo not drawn) [9-595]
Output: < 0.1 µM

Input: Next record, please: COc1cccc(-c2c(C)n(Cc3c(F)cccc3F)c(=O)n([C@H](C)CNCc3cc(C)cc(C)c3)c2=O)c1 [9-454]
Output: < 0.1 µM

Input: Next record, please: Cc1c(-c2ccc(NC(=O)OCC(C)C)cc2)c(=O)n(CCN(C)CCc2ccccn2)c(=O)n1Cc1c(F)cccc1F [6-8]
Output: < 0.1 µM

Input: Next record, please: COc1cccc(Oc2ccc(-c3c(C)n(Cc4c(F)cccc4F)c(=O)n(C[C@H](N)c4ccccc4)c3=O)cc2)c1 [8-68]
Output: < 0.1 µM

Input: Next record, please: COc1ccc(Nc2nc(-c3c(C)n(Cc4c(F)cccc4F)c(=O)n(C[C@H](N)c4ccccc4)c3=O)cs2)cc1OC [12-27]
Output: < 0.1 µM

Input: Next record, please: CCCN(CCC)[C@@H](C)Cn1c(=O)c(-c2cccc(OC)c2F)c(C)n(Cc2c(F)cccc2F)c1=O [9-681]
Output: < 0.1 µM

Input: Next record, please: COc1ccc(CCNCCn2c(=O)c(-c3ccc4c(c3)OCO4)c(C)n(Cc3c(F)cccc3F)c2=O)cc1OC [9-244]
Output: < 0.1 µM
